Recorded phosphorylation enrichment values for a group of sequences are listed next.
# SYSTEM_NAME: Fes (UniProt P07332)
# Sequence (P07332 whole entry, looked up): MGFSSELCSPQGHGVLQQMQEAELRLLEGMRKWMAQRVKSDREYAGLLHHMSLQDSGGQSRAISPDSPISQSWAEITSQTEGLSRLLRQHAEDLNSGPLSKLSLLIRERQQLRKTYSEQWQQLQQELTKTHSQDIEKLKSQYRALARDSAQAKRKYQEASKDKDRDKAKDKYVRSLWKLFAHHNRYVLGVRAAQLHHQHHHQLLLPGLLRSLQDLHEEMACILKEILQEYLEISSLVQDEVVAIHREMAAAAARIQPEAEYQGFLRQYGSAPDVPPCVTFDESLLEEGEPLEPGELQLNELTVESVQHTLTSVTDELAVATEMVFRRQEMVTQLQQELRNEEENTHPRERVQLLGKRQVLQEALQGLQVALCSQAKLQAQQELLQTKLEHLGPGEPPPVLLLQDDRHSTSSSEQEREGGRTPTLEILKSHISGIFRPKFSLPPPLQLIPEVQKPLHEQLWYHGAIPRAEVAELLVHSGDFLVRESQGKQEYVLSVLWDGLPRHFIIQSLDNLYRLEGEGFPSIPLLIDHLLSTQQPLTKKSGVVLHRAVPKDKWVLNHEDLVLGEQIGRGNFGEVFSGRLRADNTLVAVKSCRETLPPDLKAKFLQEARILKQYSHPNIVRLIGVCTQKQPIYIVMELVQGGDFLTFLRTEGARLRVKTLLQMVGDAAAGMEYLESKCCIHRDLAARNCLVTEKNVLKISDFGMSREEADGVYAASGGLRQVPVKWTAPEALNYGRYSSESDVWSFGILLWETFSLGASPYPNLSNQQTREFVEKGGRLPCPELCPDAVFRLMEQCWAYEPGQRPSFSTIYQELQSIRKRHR
# EXPERIMENTAL_PROTOCOL: phosphorylation enrichment, bacterial display (enrichment ratio); higher = better substrate or ligand; peptides without Tyr show the background;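 note: 11-residue human phosphosite peptides and single-mutation variants displayed on the E. coli surface, counted by deep sequencing, each peptide's frequency after selection divided by its frequency in the unselected input library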;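 note: frequency after pTyr selection over input frequency; kinase dosed for 20-30% of maximal phosphorylation in three min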
// print number alone

The examples below pair each entry with its known result.
>  <SEQUENCE_INPUT>
KEELAYLKKNH [KRT14_Y248]

>  <phosphorylation enrichment>
0.742

$$$$
>  <SEQUENCE_INPUT>
RDMMDYMPQGV [CYP21A2_Y259_L261P]

>  <phosphorylation enrichment>
1.36

$$$$
>  <SEQUENCE_INPUT>
AEPDIYQEKLS [USP54_Y1233]

>  <phosphorylation enrichment>
1.08

$$$$
>  <SEQUENCE_INPUT>
LTGIAYGLPHW [SLC22A14_Y291_S292G]

>  <phosphorylation enrichment>
1.25

$$$$

Ask: I am curious: what phosphorylation enrichment value has been reported for FFRNVYHLASV [RBL1_Y796_K794N_YF] ?
Reply: 0.763

Ask: Follow-up entry: ALCHYYKLNII [ETV6_Y402_R399C]
Reply: 1.62

---

Measured phosphorylation enrichment accompanies every entry in the list below.
# Test system: Fer (mouse)
# EXPERIMENTAL_PROTOCOL: phosphorylation enrichment, bacterial display (enrichment ratio); higher = better substrate or ligand; peptides without Tyr show the background
Hey, just send me the number, nothing else.

>  <SEQUENCE_INPUT>
PEPHIYAVADV [MYO9A_Y216_L211P]

>  <phosphorylation enrichment>
3.02

$$$$
>  <SEQUENCE_INPUT>
KSDVVYTDWKK [ORM1_Y175]

>  <phosphorylation enrichment>
0.592

$$$$
>  <SEQUENCE_INPUT>
ENAGYYFRISA

>  <phosphorylation enrichment>
0.523

$$$$
>  <SEQUENCE_INPUT>
PELIDYGKLRK [ACTN1_Y193]

>  <phosphorylation enrichment>
0.465

$$$$
>  <SEQUENCE_INPUT>
GIADDYDKKKP [EIF1_Y54_L59P]

>  <phosphorylation enrichment>
0.389

$$$$
>  <SEQUENCE_INPUT>
SDVSSYLEGQA [GCG_Y110]

>  <phosphorylation enrichment>
0.775

$$$$
>  <SEQUENCE_INPUT>
YTGSTYRVGDT [FN1_Y106_N104S]

>  <phosphorylation enrichment>
0.405

$$$$
>  <SEQUENCE_INPUT>
PTTKTYFRHFD [HBA1_Y43_P45R]

>  <phosphorylation enrichment>
0.312

$$$$
>  <SEQUENCE_INPUT>
RYVTRYIYNRE [HLA-DQB1_Y62]

>  <phosphorylation enrichment>
0.527

$$$$
>  <SEQUENCE_INPUT>
NGTVTYAIVAG [CDH23_Y1672]

>  <phosphorylation enrichment>
0.471

$$$$

Ask: Please give the measured phosphorylation enrichment for this sequence: FFRNVYHLASV [RBL1_Y796_K794N_YF]
Reply: 0.403

Ask: Can you check TTSQPYRRLCS [USH2A_Y534_C536R] next?
Reply: 0.315

Ask: Cool, now YGSSSSGGAGG [RPA2_Y14_Y14S]
Reply: 0.437

Ask: KSPDSYQKILP [ATM_Y1415_L1420P] ?
Reply: 0.531
